System: MDA-MB-231 (breast cancer cells)
Assay: MTT cancer cell growth inhibition
Format: cell-based
Conditions: Homo sapiens, MDA-MB-231, 72 h, read-out: GI50 MDA-MB-231, MTT, 72 hours incubation, MDA-MB-231 cells
readout-name: GI50 (nM)

* C/C=C1\NC(=O)c2ccc(SC)c(n2)CNC(=O)C[C@@H](/C=C/CCSC(C)=O)OC(=O)[C@H](CC)NC1=O [Compound 179] | 51
* C=C1NC(=O)c2nc(ccc2F)CNC(=O)C[C@@H](/C=C/CCSC(C)=O)OC(=O)[C@H](C)NC1=O [Compound 90] | 49
* C/C=C1\NC(=O)c2ccc(SCC)c(n2)CNC(=O)C[C@@H](/C=C/CCSC(=O)CCCCC)OC(=O)[C@H](C(C)C)NC1=O [Compound 255] | 23
* C/C=C1\NC(=O)c2nc(ccc2SC)CNC(=O)C[C@@H](/C=C/CCSC(C)=O)OC(=O)[C@H](C)NC1=O [Compound 183] | 49

[I] C/C=C1\NC(=O)c2nc(ccc2F)CNC(=O)C[C@@H](/C=C/CCSC(=O)CCCCCCC)OC(=O)[C@H](Cc2ccccc2)NC1=O [Example 69]
[II] C/C=C1\NC(=O)c2cccc(n2)CNC(=O)C[C@@H](/C=C/CCSC(C)=O)OC(=O)[C@H](Cc2ccccc2)NC1=O [Compound 13]
Identify the entry with the smaller GI50: I or II . Give the chosen item's label as your response. I
(I: 35 nM, II: 81 nM)

###

Tested on: U937 (human leukemia cells)
Assay: MTT cancer cell growth inhibition
Type: cell-based
Conditions: Homo sapiens, U-937, 72 h, U937 cells, MTT, 72 hours incubation; read-out: GI50 U93
readout-name: GI50 (nM)

Examples with their reported GI50 follow.
- C/C=C1\NC(=O)c2cc(SC)cc(n2)CNC(=O)C[C@@H](/C=C/CCSC(C)=O)OC(=O)[C@H](Cc2cccc3ccccc23)NC1=O: 30
- C/C=C1\NC(=O)c2nc(ccc2SC)CNC(=O)C[C@@H](/C=C/CCSC(C)=O)OC(=O)[C@H](CC)NC1=O: 60
- C/C=C1\NC(=O)c2nc(ccc2SC)CNC(=O)C[C@@H](/C=C/CCSC(=O)CCCC)OC(=O)[C@H](C(C)C)NC1=O: 20
- C/C=C1\NC(=O)c2ccc(SC)c(n2)CNC(=O)C[C@@H](/C=C/CCSC(=O)CCC)OC(=O)[C@H](C(C)C)NC1=O: 60
- C/C=C1\NC(=O)c2cc(SCC)cc(n2)CNC(=O)C[C@@H](/C=C/CCSC(=O)CCCCCCC)OC(=O)[C@H](C(C)C)NC1=O: 80
- C/C=C1\NC(=O)c2nc(ccc2SC)CNC(=O)C[C@@H](/C=C/CCSC(=O)CCCCC)OC(=O)[C@H](C(C)C)NC1=O: 30
- C/C=C1\NC(=O)c2nc(ccc2SC)CCNC(=O)C[C@@H](/C=C/CCSC(C)=O)OC(=O)[C@H](C(C)C)NC1=O: 20
- C/C=C1\NC(=O)c2ccc(SC)c(n2)CNC(=O)C[C@@H](/C=C/CCS)OC(=O)[C@H](C(C)C)NC1=O: 40

[A] C=C1NC(=O)c2nc(ccc2SC)CNC(=O)C[C@@H](/C=C/CCSC(C)=O)OC(=O)[C@H](C(C)C)NC1=O
[B] C/C=C1\NC(=O)c2cc(SC)cc(n2)CNC(=O)C[C@@H](/C=C/CCSC(=O)CCCCCCC)OC(=O)[C@H](CC)NC1=O
[C] C/C=C1\NC(=O)c2cc(SC)cc(n2)CNC(=O)C[C@@H](/C=C/CCS)OC(=O)[C@H](C)NC1=O
rank_up(items): orders items by reported GI50 in ascending numerical order. Lab note: final answer is the ordered label list. A, B, C
